# TEST_TARGET: CjapOBP2 (Cybister japonicus, UniProt A0A1Q1N694)
# Sequence (A0A1Q1N694 entry or part of it): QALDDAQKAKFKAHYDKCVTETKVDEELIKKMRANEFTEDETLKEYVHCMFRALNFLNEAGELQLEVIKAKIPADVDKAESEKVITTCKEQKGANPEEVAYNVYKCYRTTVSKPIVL
# PROCEDURE_DETAILS: Fluorescence binding assay, direct titration with 1-NPN
# CONDITION_LABEL: recombinant CjapOBP2, 2 μM protein in 50 mM Tris-HCl pH 7.4, titrated with 1-NPN 1–16 μM; Scatchard plot; read-out: dissociation constant
QUANTITY_NAME: pKd
One number for each entry, as −log10 of the molar value.

Task: Name the recorded pKd for c1ccc(Nc2cccc3ccccc23)cc1 [1-NPN, N-phenyl-1-naphthylamine] .
Result: 5.68
